Experiment: Aqueous solubility of dasatinib (internal experimentation)
Format: physicochemical
Settings: aqueous medium, pH 6.2, aqueous buffer
endpoint: solubility

Lookup: Item Cc1nc(Nc2ncc(C(=O)Nc3c(C)cccc3Cl)s2)cc(N2CCN(CCO)CC2)n1 [Dasatinib] has what recorded solubility?
Found: < 1 µg/mL

* * *

Experiment: Aqueous solubility of dasatinib (internal experimentation)
Assay type: physicochemical
Details: aqueous medium, pH 2, simulated gastric fluid
endpoint: solubility

Lookup: Item Cc1nc(Nc2ncc(C(=O)Nc3c(C)cccc3Cl)s2)cc(N2CCN(CCO)CC2)n1 [Dasatinib] has what recorded solubility?
Found: ~1400 µg/mL
